test.target: T1, apical domain of human CD71 (human, UniProt P02786 189-383, limits assumed)
T1 construct: domain: apical domain; Screen 4 panned on human apical domains, the ELISA text says only 'apical domain'
T1 sequence (P02786 189-383 limits assumed): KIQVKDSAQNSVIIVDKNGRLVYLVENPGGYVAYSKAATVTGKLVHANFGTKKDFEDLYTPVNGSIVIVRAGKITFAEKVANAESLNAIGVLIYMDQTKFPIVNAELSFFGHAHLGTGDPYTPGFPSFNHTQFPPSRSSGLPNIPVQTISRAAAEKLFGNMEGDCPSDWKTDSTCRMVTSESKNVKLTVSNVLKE
test: primary ELISA, RLU over HSA
The following binders are listed with their measured Apical domain:HSA values.
readout.kind: Apical domain:HSA

{"binder": "CD71-binding FN3 domain of SEQ ID NO: 516 (designed binder) MLPAPKNLVVSRVTEDSARLSWTAPDAAFDSFFIGYLEPQPPGEAISLWVPGSERSYDLTGLKPGTEYNVTIQGVKGGFPSSPLVAYFTT", "readout.kind": "Apical domain:HSA", "numeric.readout": 264}
{"binder": "CD71-binding FN3 domain of SEQ ID NO: 468 (designed binder) MLPAPKNLVVSRVTEDSARLSWTAPDAAFDSFLIQYDEEGVWGEAIVLTVPGSERSYDLTGLKPGTEYSVGIGGVKGGWSSVPLSAIFTT", "readout.kind": "Apical domain:HSA", "numeric.readout": 24}
{"binder": "CD71-binding FN3 domain of SEQ ID NO: 447 (designed binder) MLPAPKNLVVSRVTEDSARLSWTAPDAAFDSFFIGYLEPQPPGEAIYLYVPGSERSYDLTGLKPGTEYNVTIQGVKGGFPSYPLTAQFTT", "readout.kind": "Apical domain:HSA", "numeric.readout": 136}
{"binder": "CD71-binding FN3 domain of SEQ ID NO: 451 (designed binder) MLPAPKNLVVSRVTEDSARLSWTAPDAAFDSFFIGYLEPQPPGEAIGLLVPGSERSYDLTGLKPGTEYNVTIQGVKGGFPSIPLVADFTT", "readout.kind": "Apical domain:HSA", "numeric.readout": 151}
